MEASUREMENT_TARGET: DRB4*0101 (Homo sapiens, UniProt P01903+P13762, G164S)
Construct: expressed in transfected cells; host or cells: transfected fibroblasts L257.6
PROTOCOL: Class II peptide-binding assay DRB4*0101 (DRw53)
CONDITION_SUMMARY: IFNb 15-mer peptides, Table 5D
Ends that are not written are not given here.
PROPERTY_MEASURED: IC50 (µM)

| SEQUENCE_CODE | IC50 / µM |
| --- | --- |
| CLKDRRNFDIPEEIK | 20.1 |

P. VLEEKLEKEDFTRGK
Q. NHLKTVLEEKLEKED [NHLKTVLEEKLEKED]
Qu. Please let me know which one, P or Q , has a lower measured IC50 value. Refer to your chosen entry by its label in the reply.
Ans. Q
